Tested on: Canis familiaris
Experiment: Time to peak response on lowering of vascular resistance, in dogs when administered intravenously
Format: organism-based, Canis lupus familiaris
Settings: dog, in vivo, iv
READOUT_KIND: Tp (min)

compound="CC1=NC(C)=C(C(=O)OC(C)C)C(c2ccccc2[N+](=O)[O-])N1C(=O)OCCN(Cc1ccccc1)c1ccccc1 (centres undefined)" value_units=min measured_number=1.9
compound="CC1=NC(C)=C(C(=O)OCC2CC2)C(c2ccccc2[N+](=O)[O-])N1C(=O)OCCN(C/C=C/c1ccccc1)Cc1ccccc1 (centres undefined)" value_units=min measured_number=5.6

[a] CC1=NC(C)=C(C(=O)OCC2CC2)C(c2ccccc2[N+](=O)[O-])N1C(=O)OCCN(CCCc1ccccc1)Cc1ccccc1 (centres undefined)
[b] CCOC(=O)C1=C(C)NC(C)=C(C(=O)OC)C1c1cccc([N+](=O)[O-])c1 (centres undefined)
Q: Which numeric Tp is bigger, that of a or that of b ? Choose, then provide that item's label.
Ans: a
(a: 4.8 min, b: 1 min)
